Target: Carbonic anhydrase 9 (Homo sapiens)
Experiment: Binding affinity to human recombinant CA9 catalytic domain by fluorescence-based thermal shift assay
MEASURED ATTRIBUTE: Kd (nM)

Use these answered entries as a reference point.
CCCS(=O)(=O)c1c(F)c(F)c(S(N)(=O)=O)c(F)c1NC1CCCCCCC1: 0.0067
CC(C)(C)Nc1c(F)c(S(N)(=O)=O)c(F)c(F)c1S(=O)(=O)CCc1ccccc1: 0.2

a: CC(C)(C)c1cc(=O)[nH]c(SCC(=O)c2ccc(S(N)(=O)=O)cc2)n1
b: COc1ccc(CNc2c(F)c(F)c(F)c(F)c2S(N)(=O)=O)cc1
c: NS(=O)(=O)c1ccc(C(=O)CSc2ncccn2)cc1Cl
d: CNc1c(F)c(S(N)(=O)=O)c(F)c(F)c1S(=O)(=O)CCc1ccccc1
e: NS(=O)(=O)c1cccc(C(=O)Cn2cnc3ccccc32)c1
# input Could you please sort these 5 entries by Kd from high to low? Sort the labels as requested; that list is your answer.
# output e, c, b, a, d
(e: 200 nM, c: 110 nM, b: 22 nM, a: 11 nM, d: 2 nM)
